Target: Poly [ADP-ribose] polymerase 1 (Homo sapiens, UniProt P09874)
Sequence (P09874 whole entry): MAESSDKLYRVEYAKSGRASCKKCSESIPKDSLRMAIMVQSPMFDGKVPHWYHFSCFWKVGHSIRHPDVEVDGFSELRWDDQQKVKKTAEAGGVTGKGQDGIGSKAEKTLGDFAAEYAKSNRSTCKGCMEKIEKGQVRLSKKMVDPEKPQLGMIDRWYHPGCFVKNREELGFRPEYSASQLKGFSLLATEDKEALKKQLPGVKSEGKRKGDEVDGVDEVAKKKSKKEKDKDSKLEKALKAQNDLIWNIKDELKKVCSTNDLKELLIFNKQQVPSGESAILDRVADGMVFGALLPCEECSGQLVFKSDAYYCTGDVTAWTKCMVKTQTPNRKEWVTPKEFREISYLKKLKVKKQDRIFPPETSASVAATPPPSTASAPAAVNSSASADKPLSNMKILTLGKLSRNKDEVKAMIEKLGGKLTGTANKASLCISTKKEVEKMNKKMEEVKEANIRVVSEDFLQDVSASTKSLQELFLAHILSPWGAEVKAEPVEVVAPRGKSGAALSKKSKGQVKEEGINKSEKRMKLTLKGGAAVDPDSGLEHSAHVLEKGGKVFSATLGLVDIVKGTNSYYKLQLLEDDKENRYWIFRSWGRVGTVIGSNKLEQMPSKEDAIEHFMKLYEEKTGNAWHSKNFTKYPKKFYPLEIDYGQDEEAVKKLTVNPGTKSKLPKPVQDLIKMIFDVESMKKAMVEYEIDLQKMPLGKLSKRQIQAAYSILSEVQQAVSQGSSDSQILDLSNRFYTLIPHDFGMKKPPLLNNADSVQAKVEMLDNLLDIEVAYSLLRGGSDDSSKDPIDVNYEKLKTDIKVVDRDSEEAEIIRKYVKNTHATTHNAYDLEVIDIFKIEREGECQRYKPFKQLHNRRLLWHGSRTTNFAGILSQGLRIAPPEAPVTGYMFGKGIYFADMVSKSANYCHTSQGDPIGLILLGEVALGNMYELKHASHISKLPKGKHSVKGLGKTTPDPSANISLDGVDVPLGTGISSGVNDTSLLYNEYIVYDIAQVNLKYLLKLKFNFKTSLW
pIC50: −log10 of the molar value.

| Smiles repr | pIC50 |
| --- | --- |
| CNC(=O)c1ccc(N2CCN(Cc3ccc4nc(OC)c(=O)[nH]c4c3C)CC2)c(F)n1 | 8.10 |
